Experiment: Solubility assessment of amorphous RAD1901-2HCl in water/organic solvent system
Format: physicochemical
Conditions: anhydrous ethyl acetate, organic solvent or mixture, thermodynamic from solid, Ethyl acetate (anhydrous); sample ID C9; read-out: Solubility assessment 20 vol
Measurement Type: solubility

**Q:** # solubility lookup, item CCNCCc1ccc(CN(CC)c2cc(OC)ccc2[C@@H]2CCc3cc(O)ccc3C2)cc1.Cl.Cl [amorphous RAD1901-2HCl]
**A:** < 50 mg/mL

====

Experiment: Solubility assessment of Sample 1 (majorly Form 1) in 24 solvent systems
Assay type: physicochemical
Conditions: 1,4-dioxane, 50 °C, organic solvent or mixture, thermodynamic from solid, 1,4-Dioxane; sample ID A14; read-out: Solubility assessment 10 vol.
Measurement Type: solubility

**Q:** # solubility lookup, item CCNCCc1ccc(CN(CC)c2cc(OC)ccc2[C@@H]2CCc3cc(O)ccc3C2)cc1.Cl.Cl [Sample 1]
**A:** < 100 mg/mL

====

Assay: Solubility assessment of Sample 1 (majorly Form 1) in 24 solvent systems
Format: physicochemical
Conditions: acetone, 50 °C, organic solvent or mixture, thermodynamic from solid, Acetone; sample ID A9; read-out: Solubility assessment 40 vol.
Measurement Type: solubility

**Q:** # solubility lookup, item `CCNCCc1ccc(CN(CC)c2cc(OC)ccc2[C@@H]2CCc3cc(O)ccc3C2)cc1.Cl.Cl`
**A:** < 25 mg/mL

====

Experiment: Solubility assessment of amorphous RAD1901-2HCl
Assay type: physicochemical
Conditions: organic solvent or mixture, thermodynamic from solid; 1,4-Dioxane; sample ID B14; read-out: Solubility assessment 10 vol.
Procedure: In a scale-up preparation of amorphous RAD1901-2HCl, RAD1901-2HCl (600 mg) was dissolved in water (20 vol., 12 mL) and filtered to remove any remaining solid particles. The solution was then aliquoted into 24 HPLC vials, frozen in a dry ice/acetone bath and the solvent removed by lyophilisation. Solids produced by lyophilization were used directly in solubility assessment and polymorph screens in Example 4. […]
Measurement Type: solubility

**Q:** # solubility lookup, item CCNCCc1ccc(CN(CC)c2cc(OC)ccc2[C@@H]2CCc3cc(O)ccc3C2)cc1.Cl.Cl [amorphous RAD1901-2HCl]
**A:** < 100 mg/mL

====

Assay: Solubility assessment of Sample 1 (majorly Form 1) in 24 solvent systems
Type: physicochemical
Conditions: 10% water/IPA, 50 °C, organic solvent or mixture, thermodynamic from solid, 10% water/IPA; sample ID A23; read-out: Solubility assessment 20 vol.
Procedure: Solubility assessment was carried out on the Sample 1 of RAD1901-2HCl (majorly Form 1 shown by XRPD) in 24 solvent systems in HPLC vials (sample IDs: A1 to A24). […] After each addition of solvent, the system was stirred for 5 to 10 minutes at 25° C., then shaken at 50° C. for 5 to 10 minutes, and observations made. […] All solids recovered from maturation, cooling and evaporation experiments were analyzed by high resolution XRPD.
Measurement Type: solubility

**Q:** # solubility lookup, item CCNCCc1ccc(CN(CC)c2cc(OC)ccc2[C@@H]2CCc3cc(O)ccc3C2)cc1.Cl.Cl [Sample 1]
**A:** < 50 mg/mL

====

Test: Solubility assessment of Sample 1 (majorly Form 1) in 24 solvent systems
Format: physicochemical
Details: TBME, 50 °C, organic solvent or mixture, thermodynamic from solid, TBME; sample ID A13; read-out: Solubility assessment 40 vol.
Measurement Type: solubility

**Q:** # solubility lookup, item `CCNCCc1ccc(CN(CC)c2cc(OC)ccc2[C@@H]2CCc3cc(O)ccc3C2)cc1.Cl.Cl`
**A:** < 25 mg/mL

====

Assay: Solubility assessment of amorphous RAD1901-2HCl in water/organic solvent system
Format: physicochemical
Settings: MeOH/H2O (98:2), organic solvent or mixture, thermodynamic from solid, MeOH/H2O (98:2); sample ID C7; read-out: Solubility assessment 10 vol.
Measurement Type: solubility

**Q:** # solubility lookup, item CCNCCc1ccc(CN(CC)c2cc(OC)ccc2[C@@H]2CCc3cc(O)ccc3C2)cc1.Cl.Cl [amorphous RAD1901-2HCl]
**A:** < 100 mg/mL

====

Experiment: Solubility assessment of Sample 1 (majorly Form 1) in 24 solvent systems
Format: physicochemical
Conditions: MEK, organic solvent or mixture, thermodynamic from solid, MEK; sample ID A7; read-out: Solubility assessment 60 vol.
Measurement Type: solubility

**Q:** # solubility lookup, item `CCNCCc1ccc(CN(CC)c2cc(OC)ccc2[C@@H]2CCc3cc(O)ccc3C2)cc1.Cl.Cl`
**A:** < 16.7 mg/mL

====

Assay: Solubility assessment of amorphous RAD1901-2HCl
Type: physicochemical
Details: organic solvent or mixture, thermodynamic from solid; Nitromethane; sample ID B21; read-out: Solubility assessment 10 vol.
Measurement Type: solubility

**Q:** # solubility lookup, item CCNCCc1ccc(CN(CC)c2cc(OC)ccc2[C@@H]2CCc3cc(O)ccc3C2)cc1.Cl.Cl [amorphous RAD1901-2HCl]
**A:** < 100 mg/mL

====

Assay: Solubility assessment of Sample 1 (majorly Form 1) in 24 solvent systems
Type: physicochemical
Conditions: tetrahydrofuran, 50 °C, organic solvent or mixture, thermodynamic from solid, Tetrahydrofuran; sample ID A17; read-out: Solubility assessment 20 vol.
Measurement Type: solubility

**Q:** # solubility lookup, item `CCNCCc1ccc(CN(CC)c2cc(OC)ccc2[C@@H]2CCc3cc(O)ccc3C2)cc1.Cl.Cl`
**A:** < 50 mg/mL

====

Assay: Solubility assessment of Sample 1 (majorly Form 1) in 24 solvent systems
Format: physicochemical
Conditions: dimethyl sulfoxide, 50 °C, organic solvent or mixture, thermodynamic from solid, Dimethyl sulfoxide; sample ID A11; read-out: Solubility assessment 10 vol.
Measurement Type: solubility

**Q:** # solubility lookup, item `CCNCCc1ccc(CN(CC)c2cc(OC)ccc2[C@@H]2CCc3cc(O)ccc3C2)cc1.Cl.Cl`
**A:** > 100 mg/mL

====

Assay: Solubility assessment of amorphous RAD1901-2HCl
Type: physicochemical
Settings: organic solvent or mixture, thermodynamic from solid; Acetonitrile; sample ID B20; read-out: Solubility assessment 10 vol.
Experimental: In a scale-up preparation of amorphous RAD1901-2HCl, RAD1901-2HCl (600 mg) was dissolved in water (20 vol., 12 mL) and filtered to remove any remaining solid particles. The solution was then aliquoted into 24 HPLC vials, frozen in a dry ice/acetone bath and the solvent removed by lyophilisation. Solids produced by lyophilization were used directly in solubility assessment and polymorph screens in Example 4. […]
Measurement Type: solubility

**Q:** # solubility lookup, item CCNCCc1ccc(CN(CC)c2cc(OC)ccc2[C@@H]2CCc3cc(O)ccc3C2)cc1.Cl.Cl [amorphous RAD1901-2HCl]
**A:** < 100 mg/mL

====

Experiment: Solubility assessment of Sample 1 (majorly Form 1) in 24 solvent systems
Format: physicochemical
Settings: 1,2-dimethoxyethane, 50 °C, organic solvent or mixture, thermodynamic from solid, 1,2-dimethoxyethane; sample ID A16; read-out: Solubility assessment 60 vol.
Procedure: Solubility assessment was carried out on the Sample 1 of RAD1901-2HCl (majorly Form 1 shown by XRPD) in 24 solvent systems in HPLC vials (sample IDs: A1 to A24). […] After each addition of solvent, the system was stirred for 5 to 10 minutes at 25° C., then shaken at 50° C. for 5 to 10 minutes, and observations made. […] All solids recovered from maturation, cooling and evaporation experiments were analyzed by high resolution XRPD.
Measurement Type: solubility

**Q:** # solubility lookup, item `CCNCCc1ccc(CN(CC)c2cc(OC)ccc2[C@@H]2CCc3cc(O)ccc3C2)cc1.Cl.Cl`
**A:** < 16.7 mg/mL

====

Test: Solubility assessment of Sample 1 (majorly Form 1) in 24 solvent systems
Assay type: physicochemical
Conditions: 1,2-dimethoxyethane, 50 °C, organic solvent or mixture, thermodynamic from solid, 1,2-dimethoxyethane; sample ID A16; read-out: Solubility assessment 10 vol.
Measurement Type: solubility

**Q:** # solubility lookup, item `CCNCCc1ccc(CN(CC)c2cc(OC)ccc2[C@@H]2CCc3cc(O)ccc3C2)cc1.Cl.Cl`
**A:** < 100 mg/mL

====

Test: Solubility assessment of Sample 1 (majorly Form 1) in 24 solvent systems
Format: physicochemical
Details: MIBK, 50 °C, organic solvent or mixture, thermodynamic from solid, MIBK; sample ID A5; read-out: Solubility assessment 20 vol.
Measurement Type: solubility

**Q:** # solubility lookup, item `CCNCCc1ccc(CN(CC)c2cc(OC)ccc2[C@@H]2CCc3cc(O)ccc3C2)cc1.Cl.Cl`
**A:** < 50 mg/mL

====

Assay: Solubility assessment of Sample 1 (majorly Form 1) in 24 solvent systems
Format: physicochemical
Conditions: toluene, 50 °C, organic solvent or mixture, thermodynamic from solid, Toluene; sample ID A15; read-out: Solubility assessment 10 vol.
Measurement Type: solubility

**Q:** # solubility lookup, item CCNCCc1ccc(CN(CC)c2cc(OC)ccc2[C@@H]2CCc3cc(O)ccc3C2)cc1.Cl.Cl [Sample 1]
**A:** < 100 mg/mL

====

Experiment: Solubility assessment of Sample 1 (majorly Form 1) in 24 solvent systems
Assay type: physicochemical
Conditions: ethyl acetate, organic solvent or mixture, thermodynamic from solid, Ethyl acetate; sample ID A3; read-out: Solubility assessment 60 vol.
Measurement Type: solubility

**Q:** # solubility lookup, item `CCNCCc1ccc(CN(CC)c2cc(OC)ccc2[C@@H]2CCc3cc(O)ccc3C2)cc1.Cl.Cl`
**A:** < 16.7 mg/mL

Hello, the source for this data is patent US11708318B2, in case you need it.
